Measurement protocol: basal 3T3-L1 adipocyte mitochondrial potential changes, profiling panel, cell-based, JC-1 fluorescence, 3T3-L1 adipocytes, 24 h, 100 nL compound (AID 1168); also: test concentration not given here
Condition description: JC-1 mitochondrial fluorescence, higher = more signal, called active from +8 up or from −8 down
Activity calls are given as the source filed them.
Hi there, I'd appreciate the recorded z-score for every entry that follows.

The reported z-score of the compound [N-]=[N+]=Nc1ccccc1C[C@@]1(C(=O)N2CCOCC2)N=C(c2ccc(OCCCO)cc2)O[C@@H]1c1ccccc1N=[N+]=[N-] was 1.98 (inactive)

The measured z-score associated with CO[C@H]1COC(=O)[C@@H](OCc2ccccc2)C=C[C@H](C)[C@@H](OC)COC(=O)[C@H](OCc2ccccc2)C=C[C@@H]1C reads 0.382 (inactive)

Input CCCC/C=C/[C@H]([C@@H](O)Cc1ccccc1)N(CC#Cc1ccccc1)Cc1ccccc1Br . Output z-score: 0.519 (inactive)

The reported value for C=CCC(OC(C)=O)[C@@H]1[C@@H](N(Cc2cccc3ccccc23)C(=O)Cc2ccc(F)cc2)c2cc(OCCCO)ccc2N1C(=O)Cc1ccc2ccccc2c1 (some centres not stated) in terms of z-score is 0.38 (inactive)

Entry CCCC=C(CCC)[C@@H](NC(=O)c1ccc(C(F)(F)F)cc1)c1ccccc1 — recorded z-score = -0.208 (inactive)

Short answer for CC(C)CN1C(=O)[C@@]2(Cc3ccccc31)c1ccccc1C(=O)N(C1CCCCC1)[C@H]2c1ccc(CO)cc1 : z-score was 0.938 (inactive)

Lab note: CO[C@H]1COC(=O)[C@H](C)NC(=O)CC=C[C@@H](C)[C@H](NS(=O)(=O)c2ccc(C)cc2)COC(=O)[C@@H](OCc2ccccc2)C=C[C@@H]1C gave z-score of 0.315 (inactive)

###

Would you mind telling me the reported composite z-score of each entry?
Tested system: Concanavalin-A (Canavalia ensiformis) (UniProt P02866)
Sequence (P02866 whole entry, looked up): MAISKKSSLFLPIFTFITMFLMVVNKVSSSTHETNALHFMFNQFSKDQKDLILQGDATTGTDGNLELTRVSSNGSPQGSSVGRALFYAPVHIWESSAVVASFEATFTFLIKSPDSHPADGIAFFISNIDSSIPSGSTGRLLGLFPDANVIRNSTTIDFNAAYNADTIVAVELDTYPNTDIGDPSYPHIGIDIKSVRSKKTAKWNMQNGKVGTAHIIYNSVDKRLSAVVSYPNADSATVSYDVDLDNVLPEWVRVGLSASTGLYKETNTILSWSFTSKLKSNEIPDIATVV
Measurement protocol: ConA small-molecule binders, primary screen, artefact control for SMM control protein annotation, biochemical, small-molecule microarray, Alexa647 label, 635 nm (AID 1127);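 also: z combines 667 nm emission intensity with signal-to-noise across three replicate slides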
Condition description: ConA-A647 binding fluorescence, higher = more signal
Form: value (number only, do not type unit).

For record O=C1O[C@H](c2ccccc2)[C@H](c2ccccc2)N2[C@H]1[C@@H](C(=O)Nc1nc3ccccc3s1)[C@]1(C(=O)Nc3ccc(C#CC4(O)CCCCCC4)cc31)[C@H]2c1ccc(O)cc1 the listed composite z-score is 1.14

Entry Cc1ccc(S[C@]2(C(=O)O)CC(=O)N(Cc3cc(C(F)(F)F)cc(C(F)(F)F)c3)[C@@H]2c2ccc(CO)cc2I)cc1 — recorded composite z-score = 0.226

Looking up C[C@@H]1CC[C@H]2C(=O)N3[C@@H](CC[C@@H](C)[C@@H]3c3cccc(N4CCOCC4)c3)C(=O)N2[C@H]1c1cccc(N2CCOCC2)c1 , I found its composite z-score recorded as 1.04

Input [N-]=[N+]=NCc1ccccc1C[C@]1(C(=O)N2CCCCC2)N=C(c2ccc(OCCCO)cc2)O[C@H]1c1ccccc1CN=[N+]=[N-] . Output composite z-score: 1.04

The reported composite z-score of the compound CC(=O)NCCCC[C@@H]1NC(=O)[C@@H]2C[C@H](C(=O)NCCCCCNC(=O)CS)[C@H](c3ccc(O)cc3)N2C1=O was -0.579

Item: CO[C@H]1O[C@H](CO)[C@@H](OC(=O)Nc2ccc(Oc3ccccc3)cc2)[C@H](OC(=O)Nc2ccccc2-c2ccccc2)[C@H]1OC(=O)Nc1ccccc1-c1ccccc1 | composite z-score: 1.18

###

Measurement protocol: MM1S myeloma cell viability, profiling panel, resazurin fluorescence, basal, 24 h, PK04 Diversity Set (AID 1174);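 also: MM1S multiple myeloma cell line; test concentration not given here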
Condition description: higher = more signal, called active from +8 up or from −8 down
Please note: Criterion met applies when z-score is 0.2 or greater, and Criterion not met applies otherwise.

Can CO[C@H]1COC(=O)[C@@H](C)COC(=O)[C@H](Cc2ccccc2)NC(=O)CC=C[C@H]1C be said to have z-score at or above 0.2?
Criterion met

Please indicate if the recorded z-score for CO[C@@H]1COC(=O)CC=C[C@H](C)COC(=O)[C@H](Cc2ccccc2)NC(=O)CC=C[C@H]1C meets or exceeds 0.2.
Criterion met

Form field: z-score at least 0.2? Entry: CCOC(=O)C1=C[C@@H](c2ccccc2)N(S(=O)(=O)c2ccc(C)cc2)[C@H]1c1ccc(F)cc1
Criterion not met

Hi, just wondering whether COC(=O)C[C@H]1O[C@]2(C(=O)N(Cc3ccccc3)c3ccc(I)cc32)[C@@H](C)[C@@H]1[Si](C)(C)c1ccc(OC)cc1 shows z-score of 0.2 or higher.
Criterion not met

// inclusive: z-score at least 0.2? input: O=[N+]([O-])c1ccc(C[n+]2ccc3ccc(O)cc3c2)o1
Criterion met

Given the entry C=CCNC(=O)[C@H]1[C@@H]2C(=O)O[C@@H](c3ccccc3)[C@@H](c3ccccc3)N2[C@@H](c2ccc(O)cc2)[C@]12C(=O)Nc1ccc(C#CCNC(N)=O)cc12 , answer whether its z-score meets or surpasses 0.2.
Criterion met

Form field: z-score at least 0.2? Entry: O=C1OCC=C[C@H]2OC34C=CCN(Cc5ccccc5)C(=O)[C@H]3N(CCCCCO)C(=O)[C@@H]4[C@@H]12 (stereo partly drawn)
Criterion met

Is z-score for Cc1ccc(S[C@]2(C(=O)NCCCN(C)C)CC(=O)N(Cc3ccccc3)[C@@H]2c2ccc(CO)cc2I)cc1 at or above 0.2?
Criterion not met

###

Measurement protocol: PSAC antagonists in infected red cells, primary screen, cell-based, P. falciparum Indochina, OD700, 1 h (AID 1154)
Condition description: P. falciparum Indochina infected RBC osmotic lysis, called active from +8 up or from −8 down
Activity calls are given as the source filed them.
Response enum: YES = active, NO = inactive

Field: outcome | Entry: C[C@H]1COC(=O)[C@H](Cc2ccccc2)NC(=O)[C@@H](C)COC(=O)[C@H](Cc2ccccc2)NC1=O
NO

Answer briefly: the call reported for CCCN1C(=O)[C@@]2(CCS(=O)(=O)c3ccccc3)N=C(c3ccc(OCCCO)cc3)O[C@H]2c2ccccc21 in this assay.
YES

Lab log entry: CCCC=C(CCC)[C@@H](NC(=O)c1ccc(C(F)(F)F)cc1)c1ccccc1 — outcome as called in the assay?
NO

Which outcome was entered for the compound O=C1c2ccccc2[C@@]2(Cc3ccccc3N(CC(F)(F)F)C2=O)[C@H](c2ccc(CO)cc2)N1C1CCCCC1 in this test?
NO

Status in this test for CN1C2C=C(c3ccc(CO)cc3)C(C3C(=O)N(C(N)=O)C(=O)C32)C1c1cccs1 (stereo unspecified) ?
NO

Status in this test for Cc1ccc(N2C(=O)c3ccccc3[C@](C)(C(=O)O)[C@@H]2c2ccc(CO)cc2)nc1 ?
NO

Query: recorded result category for CCCNC(=O)[C@@]1(Sc2ccc(C)cc2)CC(=O)N(Cc2ccccc2Cl)[C@@H]1c1ccc(CO)cc1 in this test
NO

Dear colleague, could you share the recorded outcome for O=C1C[C@@](C(=O)NCCN2CCOCC2)(c2ccc([N+](=O)[O-])cc2)[C@@H](c2ccc(CO)cc2)N1C1CCCCC1 when you have a moment?
NO

Tell me the assay call for Cc1ccc(S[C@]2(C(=O)NC(C)C)CC(=O)N(Cc3cc(C(F)(F)F)cc(C(F)(F)F)c3)[C@@H]2c2ccc(CO)cc2I)cc1 please.
NO

Tell me the recorded outcome of this test for CCCC[C@@H]1C[C@H]1[C@@H](NC(=O)c1ccccc1)c1ccccc1C(F)(F)F .
NO

Would you mind telling me which call this test gave C=CC[C@]1(C(N)=O)N=C(c2ccc(OCCCO)cc2)O[C@H]1c1ccccc1CN=[N+]=[N-] ?
YES

Test call for this compound, please: O=C(CS)NCCCCCNC(=O)[C@H]1C[C@H]2C(=O)N3CCC[C@H]3C(=O)N2[C@H]1c1ccc(O)cc1
NO

Please indicate how the test categorized C#C[C@H](O[Si](C#Cc1ccccc1)(C(C)C)C(C)C)c1ccccc1 .
NO

Record lookup: outcome of this test for O=C(CS)NCCCCCNC(=O)[C@H]1C[C@H]2C(=O)N[C@@H](Cc3ccccc3)C(=O)N2[C@H]1c1ccc(O)cc1 ?
NO

Any idea what this test logged for COc1cc2c(cc1OC)CN(C(=O)[C@H]1[C@@H]3C(=O)O[C@@H](c4ccccc4)[C@@H](c4ccccc4)N3[C@@H](c3ccccc3OCCO)[C@]13C(=O)Nc1ccc(C#CC4(O)CCCCCC4)cc13)CC2 ?
NO

Identify the outcome logged in this assay for the compound shown: C=C(CCCC)C(=O)CC[C@@H](OC(=O)c1cccnc1)c1cccc(OCCO)c1
YES

###

Test system: Inhibin beta A chain (activin A)
Measurement protocol: INHBA (activin A) binders on microarrays, primary screen, biochemical, small-molecule microarray, 635 nm fluorescence scan (AID 1107);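 also: mouse activin A protein probed at 4.33 µg/mL on printed slides; score merges bound-protein fluorescence near 667 nm with spot signal-to-noise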
Condition description: small-molecule microarray binding, higher = more signal
Class 1: composite z-score at least 1. Class 0: composite z-score below 1.

Decide: composite z-score of C[C@H]1C2[C@H](Cc3ccccc3)NC(=O)[C@]23C(=O)N[C@H](Cc2ccccc2)C(=O)N[C@@H](Cc2ccccc2)C(=O)NC/C=C\C/C=C/C3[C@@H]2O[C@]12C (stereo partly specified) >= 1?
1

Reported composite z-score reaches at least 1 for C=CC[C@]1(C(=O)OC)N=C(c2ccc(OCCCO)cc2)O[C@H]1c1ccccc1CN=[N+]=[N-] ?
1

Form field: composite z-score at least 1? Entry: CCCC[C@@H]1C[C@H]1[C@@H](NC(=O)c1cccs1)c1ccc(Cl)cc1
0

Confirm if composite z-score reported for the molecule CCCC/C=C/[C@H]([C@@H](O)Cc1ccccc1)N(CC#Cc1ccccc1)Cc1ccccc1Br is 1 or above.
0

Decide: is the reported value of composite z-score for COc1cc([C@@H]2N[C@H](C(=O)O)Cc3c2[nH]c2ccccc32)cc(OC)c1OC equal to or greater than 1?
0

composite z-score >= 1 for NC(=O)NCC#Cc1ccc2c(c1)[C@]1(C(=O)N2)[C@H](C(=O)N2CCCCCCC2)[C@H]2C(=O)O[C@H](c3ccccc3)[C@H](c3ccccc3)N2[C@@H]1c1ccccc1OCCO ?
1

Confirm if composite z-score reported for the molecule COc1ccc(C(=O)Nc2ccc(CN3C(=O)[C@]4(O[C@H](CCn5cc(CCO)nn5)[C@@H]([Si](C)(C)c5ccc(OC)cc5)[C@@H]4C)c4ccccc43)cc2)cc1 is 1 or above.
1

Decide: composite z-score of COc1cc(CO)cc(I)c1O[C@H]1C=C(C(=O)NCCO)C[C@@H](NCCc2c[nH]c3ccccc23)[C@@H]1O >= 1?
1

Can O=C1C2C=CC(C(O)C#Cc3ccccc3)N(Nc3ccccc3)C2C(=O)N1c1ccccc1 (stereo unspecified) be said to have composite z-score at or above 1?
0

Is reported composite z-score greater than or equal to 1 here: COc1ccc([Si](C)(C)[C@H]2[C@H](CC(=O)N(CCO)Cc3ccccc3)O[C@@]3(C(=O)N(C)c4ccccc43)[C@@H]2C)cc1
0

Record CC(C)[Si](OCCCNS(=O)(=O)c1ccc(Br)cc1)(C(C)C)C(C)C ; criterion: composite z-score no lower than 1. Met?
0

Evaluate CN(C)C(=O)[C@@]1(Cc2ccccc2N=[N+]=[N-])N=C(c2ccc(OCCCO)cc2)O[C@H]1c1ccccc1CN=[N+]=[N-] : composite z-score at minimum 1?
0

Answer whether composite z-score of COCC(=C=CC[C@H](O)c1ccc(OCCO)cc1)C[C@H](O)c1ccccn1 is greater than or equal to 1.
0

Given the entry O=C1O[C@@H](c2ccccc2)[C@@H](c2ccccc2)N2[C@@H](c3ccc(O)cc3)[C@]3(C(=O)Nc4ccccc43)[C@@H](C(=O)N3CCN(c4ncccn4)CC3)[C@H]12 , answer whether its composite z-score meets or surpasses 1.
0

State whether the measured composite z-score reaches 1, counting equality as reaching it, for C=CC(=O)O[C@@H](Cc1ccccc1)[C@H]1C2C=CCCC=C2CN1Cc1cccc(Cl)c1 (stereo partly specified)
1

Identify whether the reported composite z-score of the following molecule is 1 or greater: CC(C)[Si]1(C(C)C)OCc2cc(C3CC3)nc(-c3ccccc3)c21
1
